tested on: MCF7; assay: Cytotoxicity against human MCF7 cells assessed as inhibition of cell growth incubated for 24 hrs by MTT assay; assay type: functional, cell-based; settings: MCF7, 24 h
propertyName: pIC50
Give bare numbers, as −log10 of the molar value.

Input: So what's the measured pIC50 for this one? CC[C@H](C)[C@@H]1NC(=O)[C@@H]2[C@@H](C)CCN2C(=O)[C@@H](C[C@@H](O)CCl)OC(=O)CCNC(=O)[C@H](C)N(C)C(=O)[C@H]([C@@H](C)CC)N(C)C1=O
Output: 7.10
